Reported IC50 values, Dihydrofolate reductase (Homo sapiens, UniProt P00374).
Readout Label: IC50 (µM)

* O=c1c2ccccc2n(CC2CO2)c2ccccc12 (racemic) | 0.02
* CN1C(=O)C(=Cc2cn(CC(O)Cn3c4ccccc4c(=O)c4ccccc43)c3ccccc23)C(=O)N(C)C1=O (racemic) | 0.21
* O=C(OC[C@@H]1CO1)c1cccc2c(=O)c3ccccc3[nH]c12 | 0.01
* C[C@H](NC(=O)CNC(=O)c1cccc2c(=O)c3ccccc3[nH]c12)C(=O)O | 0.67

Cited source: ChEMBL document CHEMBL4359904
